Give HepSE_jaundice for every item shown.
Answer as a number with no unit attached.

Query the reported HepSE_jaundice for Hepatotoxicity; item: C[C@@H](c1ncncc1F)[C@](O)(Cn1cncn1)c1ccc(F)cc1F
1

Lab note: need HepSE_jaundice for COc1ccccc1OCC(O)CN1CCN(CC(=O)Nc2c(C)cccc2C)CC1 (stereo not given) on Hepatotoxicity, anyone have it?
0

Give Hepatotoxicity HepSE_jaundice for CN(C)CCCN1c2ccccc2CCc2ccc(Cl)cc21
0

What value of HepSE_jaundice on Hepatotoxicity does CCN(CC)C(C)C(=O)c1ccccc1 (stereo not given) have?
0

Tell me reported HepSE_jaundice for CCC(=O)[C@@]1(C)[C@H](C)C[C@H]2[C@@H]3CCC4=CC(=O)C=C[C@]4(C)[C@H]3[C@@H](O)C[C@@]21C [RIMEXOLONE] , tested with Hepatotoxicity.
0

====

Field: DILI positive/negative. Provide a value for each of the compounds that follow.
Counter-ions that a name gives are not always drawn.
Output spec: single numeric token, no unit.

Look up DILI positive/negative with Hepatotoxicity for this compound: Cc1onc(-c2ccccc2Cl)c1C(=O)N[C@@H]1C(=O)N2[C@@H]1SC(C)(C)[C@@H]2C(=O)[O-].O.[Na+] [CLOXACILLIN SODIUM]
1

Under Hepatotoxicity: DILI positive/negative value of Nc1ccc(C(=O)[O-])cc1.[K+] [AMINOBENZOATE POTASSIUM] ?
0

# returns recorded DILI positive/negative (system: Hepatotoxicity) for CC(C(=O)O)c1ccc2oc(-c3ccc(Cl)cc3)nc2c1 (centres undefined)
1

Lab request: please report DILI positive/negative under test system Hepatotoxicity for C=CCOC=O [ALLYL FORMATE]
1

Kindly state the measured DILI positive/negative obtained for CCOC(=O)C1(c2ccccc2)CCN(CCC(C#N)(c2ccccc2)c2ccccc2)CC1.Cl [DIPHENOXYLATE HYDROCHLORIDE] with Hepatotoxicity.
0

Recorded DILI positive/negative for CC(=O)Nc1ccc2c(c1)Cc1ccccc1-2 with Hepatotoxicity, please?
1

Identify the measured DILI positive/negative of CC(C)NNC(=O)c1ccncc1 for Hepatotoxicity.
1

DILI positive/negative of CCN(CC)CCOc1ccc(C(=C(Cl)c2ccccc2)c2ccccc2)cc1 on Hepatotoxicity?
1

I'm curious: which DILI positive/negative was measured for CCOc1ccc(NC(C)=O)cc1 tested on Hepatotoxicity?
1

====

Answer each item with its documented HepSE_hepatic necrosis.
# print the numeric value only

Form: Entry = C[C@@H](O)[C@H]1C(=O)N2C(C(=O)O)=C(S[C@@H]3CN[C@H](C(=O)N(C)C)C3)[C@H](C)[C@H]12 | System = Hepatotoxicity | HepSE_hepatic necrosis = ____
0

I'm curious: which HepSE_hepatic necrosis was measured for Cc1ccc(Cl)c(Nc2ccccc2C(=O)O)c1Cl tested on Hepatotoxicity?
0

Given the entry CCCCc1nc(Cl)c(CO)n1Cc1ccc(-c2ccccc2-c2nn[nH]n2)cc1 , what HepSE_hepatic necrosis was observed with Hepatotoxicity?
0

For the record CC(C)C(=O)Nc1ccc([N+](=O)[O-])c(C(F)(F)F)c1 [FLUTAMIDE] , what value of HepSE_hepatic necrosis is listed for Hepatotoxicity?
1

====

For each entry below, report its HepSE_cholecystitis value.
Where a SMILES comes first, the peptide text is derived from it. Bridges are numbered along the chain shown (N, C = ends). [ ]: non-standard residue; d: D form. The star is where a group is joined. Ileψ(thiazoline)Cys = CC[C@H](C)[C@H](N)C1=N[C@H](C(=O)*)CS1; dOrn = NCCC[C@@H](N)C(=O)O
Lab note: record the figure alone, no unit after it.

Please provide the recorded HepSE_cholecystitis for CCC1(c2ccccc2)NC(=O)N(C)C1=O (stereo unspecified) [MEPHENYTOIN] , tested on Hepatotoxicity.
0

Which HepSE_cholecystitis is reported with Hepatotoxicity for this entry: CC[C@H](C)[C@H](N)C1=N[C@H](C(=O)N[C@@H](CC(C)C)C(=O)N[C@H](CCC(=O)O)C(=O)N[C@H](C(=O)N[C@H]2CCCCNC(=O)[C@H](CC(N)=O)NC(=O)[C@@H](CC(=O)O)NC(=O)[C@H](Cc3cnc[nH]3)NC(=O)[C@@H](Cc3ccccc3)NC(=O)[C@H]([C@@H](C)CC)NC(=O)[C@@H](CCCN)NC2=O)[C@@H](C)CC)CS1 [BACITRACIN] ({Ileψ(thiazoline)Cys}-L[dE]IK[dOrn]I[dF]H[dD]N; lactam 4-C) ?
0

Please tell me: HepSE_cholecystitis of CC1(C)O[C@@H]2C[C@H]3[C@@H]4CCC5=CC(=O)CC[C@]5(C)[C@@]4(F)[C@@H](O)C[C@]3(C)[C@]2(C(=O)CCl)O1 [HALCINONIDE] , system Hepatotoxicity?
0

Notebook: pull reported HepSE_cholecystitis for Hepatotoxicity, entry CCCN1C[C@H](CSC)C[C@@H]2c3cccc4[nH]cc(c34)C[C@H]21 [PERGOLIDE]
1

Please state recorded HepSE_cholecystitis (tested on Hepatotoxicity) of C=C[C@H]1C[N@@]2CC[C@H]1C[C@@H]2[C@@H](O)c1ccnc2ccc(OC)cc12 [QUINIDINE]
0

What value of HepSE_cholecystitis on Hepatotoxicity does CC1(C)O[C@@H]2C[C@H]3[C@@H]4C[C@H](F)C5=CC(=O)CC[C@]5(C)[C@H]4[C@@H](O)C[C@]3(C)[C@]2(C(=O)CO)O1 [FLURANDRENOLIDE] have?
0

Notebook entry, Hepatotoxicity assay: HepSE_cholecystitis of C[C@@H](O[C@H]1OCCN(Cc2n[nH]c(=O)[nH]2)[C@H]1c1ccc(F)cc1)c1cc(C(F)(F)F)cc(C(F)(F)F)c1 [APREPITANT] = ?
0

Test system Hepatotoxicity; read-out HepSE_cholecystitis; what value for CCC(=O)O[C@]1(C(=O)CCl)[C@@H](C)C[C@H]2[C@@H]3C[C@H](F)C4=CC(=O)C=C[C@]4(C)[C@@]3(F)[C@@H](O)C[C@@]21C [HALOBETASOL PROPIONATE] ?
0

Any idea what HepSE_cholecystitis came out for CO[C@H]1C[C@@H]2CC[C@@H](C)[C@@](O)(O2)C(=O)C(=O)N2CCCC[C@H]2C(=O)O[C@H]([C@H](C)C[C@@H]2CC[C@@H](O)[C@H](OC)C2)CC(=O)[C@H](C)/C=C(\C)[C@@H](O)[C@@H](OC)C(=O)[C@H](C)C[C@H](C)/C=C/C=C/C=C/1C [SIROLIMUS] on Hepatotoxicity?
0

API: value(readout=HepSE_cholecystitis, system=Hepatotoxicity) for record CCCCCCCC(=O)CC[C@@H]1[C@@H](C/C=C\CCCC(=O)O)[C@@H](O)C[C@H]1O [UNOPROSTONE]
0

What measured HepSE_cholecystitis is associated with Cc1nc(Nc2ncc(C(=O)Nc3c(C)cccc3Cl)s2)cc(N2CCN(CCO)CC2)n1.O [DASATINIB] on Hepatotoxicity?
1
